FYI, the data here is from paper PMC7340117.

Molecular target: human fumarate hydratase (Homo sapiens, UniProt P07954)
Sequence (P07954 45-510): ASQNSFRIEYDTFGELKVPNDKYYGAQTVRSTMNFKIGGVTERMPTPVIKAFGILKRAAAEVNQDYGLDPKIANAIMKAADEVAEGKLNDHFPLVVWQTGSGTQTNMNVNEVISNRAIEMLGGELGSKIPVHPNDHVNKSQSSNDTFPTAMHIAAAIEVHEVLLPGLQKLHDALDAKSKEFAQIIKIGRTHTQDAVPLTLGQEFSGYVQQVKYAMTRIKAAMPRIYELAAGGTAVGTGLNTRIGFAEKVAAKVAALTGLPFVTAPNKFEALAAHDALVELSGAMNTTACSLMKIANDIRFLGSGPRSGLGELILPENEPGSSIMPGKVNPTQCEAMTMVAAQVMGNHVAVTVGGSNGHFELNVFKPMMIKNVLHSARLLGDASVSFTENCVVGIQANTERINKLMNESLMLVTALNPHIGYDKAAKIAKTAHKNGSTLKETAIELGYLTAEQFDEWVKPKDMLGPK
Test: fluorescence-based FH assay coupled to MDH/diaphorase/resazurin
Type: biochemical
Outcome Measure: AC50 (µM)

Example results:
Compound Structure String: CCCCn1cc2c(c1-c1ccc(Br)cc1)c(=O)n(C)c(=O)n2C
AC50 (µM): 9.98
--
Compound Structure String: Cn1c(=O)c2c(-c3ccccc3Br)n(Cc3ccccc3)cc2n(C)c1=O
AC50 (µM): 28.1
--
Compound Structure String: Cn1c(=O)c2c(-c3ccccc3Cl)n(Cc3ccc(Cl)cc3)cc2n(C)c1=O
AC50 (µM): 15.8

P = Cn1c(=O)c2c(-c3ccc(Cl)cc3)n(Cc3ccc(Cl)cc3)cc2n(C)c1=O
Q = Cn1c(=O)c2c(-c3ccc(Br)cc3)n(CCc3ccccc3)cc2n(C)c1=O
R = COc1ccc(CCn2cc3c(c2-c2ccc(Br)cc2)c(=O)n(C)c(=O)n3C)cc1OC
// ranking: key=AC50, reverse=True Please list the labels according to the requested order.
R, P, Q
(R: 31.5 µM, P: 17.7 µM, Q: 7.06 µM)

====

assay: rat microsomal stability assay; type: in vitro ADME; settings: liver microsomes
Outcome Measure: half-life (min)

Example results:
Compound Structure String: CCCCCn1cc2c(c1-c1ccc(Br)cc1)c(=O)n(C)c(=O)n2C
Unit Label: min
half-life: 6.39
--
Compound Structure String: Cn1c(=O)c2c(-c3ccc(Cl)cc3)n(CCc3ccccc3)cc2n(C)c1=O
Unit Label: min
half-life: 1.11

a = Cn1c(=O)c2c(-c3ccc(Br)cc3)n(CCc3ccccc3)cc2n(C)c1=O
b = CCCCn1cc2c(c1-c1ccc(Br)cc1)c(=O)n(C)c(=O)n2C
Hi, I'm comparing a with b and wondering which one has the bigger number for half-life. Any idea? # respond with the chosen item's label
b

====

assay: parallel artificial membrane permeability assay; assay type: in vitro ADME; conditions: pH 5
Some molecules, each annotated with its measured PAMPA permeability pH 5.

Molecule: CCCCCn1cc2c(c1-c1ccc(Br)cc1)c(=O)n(C)c(=O)n2C [NCGC00117671]
Outcome Measure: PAMPA permeability pH 5
Data Value: 945.87 1×10–6 cm/s

Molecule: Cn1c(=O)c2c(-c3ccc(Br)cc3)n(CCc3ccccc3)cc2n(C)c1=O [NCGC00117693]
Outcome Measure: PAMPA permeability pH 5
Data Value: 590 1×10–6 cm/s

Molecule: Cn1c(=O)c2c(-c3ccc(Cl)cc3)n(CCc3ccccc3)cc2n(C)c1=O [NCGC00102736]
Outcome Measure: PAMPA permeability pH 5
Data Value: 762.26 1×10–6 cm/s

Sure, the documented PAMPA permeability pH 5 for CCCCn1cc2c(c1-c1ccc(Br)cc1)c(=O)n(C)c(=O)n2C [NCGC00117675] is 1,194 1×10–6 cm/s

====

target: human fumarate hydratase (Homo sapiens, UniProt P07954); experiment: fluorescence-based FH assay coupled to MDH/diaphorase/resazurin; format: biochemical; conditions: read-out: Efficacy
Outcome Measure: Emax (%)

1 = Cn1c(=O)c2c(-c3ccccc3Cl)n(Cc3ccc(Cl)cc3)cc2n(C)c1=O
2 = Cn1c(=O)c2c(-c3ccccc3Br)n(Cc3ccccc3)cc2n(C)c1=O
Min Emax? 1 | 2 # respond with the chosen item's label
1
(1: 45.5%, 2: 78.1%)

I = Cn1c(=O)c2c(-c3ccc(Br)cc3)n(CCc3ccccc3)cc2n(C)c1=O
II = CCCCCn1cc2c(c1-c1ccc(Cl)cc1)c(=O)n(C)c(=O)n2C
Hi, I'm comparing I with II and wondering which one has the bigger number for Emax. Any idea? # respond with the chosen item's label
I
(I: 63.7%, II: 35%)

====

test: aqueous kinetic solubility assay; type: physicochemical; details: aqueous medium, kinetic from dmso stock
Outcome Measure: solubility (µg/mL)

I = Cn1c(=O)c2c(-c3ccc(Br)cc3)n(CCc3ccccc3)cc2n(C)c1=O
II = Cn1c(=O)c2c(-c3ccc(Cl)cc3)n(CCc3ccccc3)cc2n(C)c1=O
Hi, I'm comparing I with II and wondering which one has the bigger number for solubility. Any idea? # respond with the chosen item's label
I

====

test: parallel artificial membrane permeability assay; format: in vitro ADME; details: pH 7.4
Outcome Measure: PAMPA Permeability pH 7.4

Compound Structure String: Cn1c(=O)c2c(-c3ccc(Br)cc3)n(CCc3ccccc3)cc2n(C)c1=O
Outcome Measure: PAMPA Permeability pH 7.4
Data Value: Not conclusive
--
Compound Structure String: CCCCCn1cc2c(c1-c1ccc(Br)cc1)c(=O)n(C)c(=O)n2C
Outcome Measure: PAMPA Permeability pH 7.4
Data Value: Not conclusive
--
Compound Structure String: Cn1c(=O)c2c(-c3ccc(Cl)cc3)n(CCc3ccccc3)cc2n(C)c1=O
Outcome Measure: PAMPA Permeability pH 7.4
Data Value: 1,224.00 1×10–6 cm/s
--
Compound Structure String: CCCCn1cc2c(c1-c1ccc(Br)cc1)c(=O)n(C)c(=O)n2C
Outcome Measure: PAMPA Permeability pH 7.4
Data Value: 1,507 1×10–6 cm/s

====

biological target: human fumarate hydratase (Homo sapiens, UniProt P07954); assay: fluorescence-based FH assay coupled to MDH/diaphorase/resazurin; format: biochemical
Outcome Measure: AC50 (µM)

Example results:
Compound: CCCCCn1cc2c(c1-c1ccc(Br)cc1)c(=O)n(C)c(=O)n2C [NCGC00117671]
AC50 (µM): 7.93
//
Compound: CCCCCn1cc2c(c1-c1ccccc1Br)c(=O)n(C)c(=O)n2C [NCGC00117699]
AC50 (µM): 31.5

A = Cn1c(=O)c2c(-c3ccccc3Br)n(CCc3ccccc3)cc2n(C)c1=O [NCGC00117727]
B = CCCCCn1cc2c(c1-c1ccc(Cl)cc1)c(=O)n(C)c(=O)n2C [NCGC00115666]
C = Cn1c(=O)c2c(-c3ccc(Cl)cc3)n(CCc3ccccc3)cc2n(C)c1=O [NCGC00102736]
// ranking: key=AC50, reverse=True Please list the labels according to the requested order.
A, C, B
(A: 25.1 µM, C: 8.89 µM, B: 5.61 µM)

====

target: human fumarate hydratase (Homo sapiens); experiment: fluorescence-based FH assay coupled to MDH/diaphorase/resazurin; format: biochemical; settings: read-out: Efficacy
Outcome Measure: Emax (%)

Compound Structure String: CCCCCn1cc2c(c1-c1ccccc1Br)c(=O)n(C)c(=O)n2C
Test System: human fumarate hydratase (Homo sapiens)
Data Value: 49.7

Compound Structure String: CCCCCn1cc2c(c1-c1ccc(Br)cc1)c(=O)n(C)c(=O)n2C
Test System: human fumarate hydratase (Homo sapiens)
Data Value: 60.1

Compound Structure String: COc1ccc(CCn2cc3c(c2-c2ccc(Br)cc2)c(=O)n(C)c(=O)n3C)cc1OC
Test System: human fumarate hydratase (Homo sapiens)
Data Value: 79.5

Compound Structure String: Cn1c(=O)c2c(-c3ccc(Cl)cc3)n(CCc3ccccc3)cc2n(C)c1=O
Test System: human fumarate hydratase (Homo sapiens)
Data Value: 79.4

Compound Structure String: CCCCn1cc2c(c1-c1ccc(Br)cc1)c(=O)n(C)c(=O)n2C
Test System: human fumarate hydratase (Homo sapiens)
Data Value: 79

Compound Structure String: Cn1c(=O)c2c(-c3ccccc3Br)n(CCc3ccccc3)cc2n(C)c1=O
Test System: human fumarate hydratase (Homo sapiens)
Data Value: 70

Compound Structure String: Cn1c(=O)c2c(-c3ccc(Cl)cc3)n(Cc3ccc(Cl)cc3)cc2n(C)c1=O
Test System: human fumarate hydratase (Homo sapiens)
Data Value: 52

Compound Structure String: CCCCn1cc2c(c1-c1ccc(Cl)cc1)c(=O)n(C)c(=O)n2C
Test System: human fumarate hydratase (Homo sapiens)
Data Value: 60.5
